Provenance of the data: patent US20260226493A1

# system_under_test: Arabidopsis thaliana BioDA variant enzymes (Arabidopsis thaliana, UniProt B0F481, W391L)
# Construct: with the predicted N-terminal mitochondrial transit peptide removed; 6xHis-tag (N); thrombin cleavage site (N)
# Sequence (B0F481 24-833 W391L): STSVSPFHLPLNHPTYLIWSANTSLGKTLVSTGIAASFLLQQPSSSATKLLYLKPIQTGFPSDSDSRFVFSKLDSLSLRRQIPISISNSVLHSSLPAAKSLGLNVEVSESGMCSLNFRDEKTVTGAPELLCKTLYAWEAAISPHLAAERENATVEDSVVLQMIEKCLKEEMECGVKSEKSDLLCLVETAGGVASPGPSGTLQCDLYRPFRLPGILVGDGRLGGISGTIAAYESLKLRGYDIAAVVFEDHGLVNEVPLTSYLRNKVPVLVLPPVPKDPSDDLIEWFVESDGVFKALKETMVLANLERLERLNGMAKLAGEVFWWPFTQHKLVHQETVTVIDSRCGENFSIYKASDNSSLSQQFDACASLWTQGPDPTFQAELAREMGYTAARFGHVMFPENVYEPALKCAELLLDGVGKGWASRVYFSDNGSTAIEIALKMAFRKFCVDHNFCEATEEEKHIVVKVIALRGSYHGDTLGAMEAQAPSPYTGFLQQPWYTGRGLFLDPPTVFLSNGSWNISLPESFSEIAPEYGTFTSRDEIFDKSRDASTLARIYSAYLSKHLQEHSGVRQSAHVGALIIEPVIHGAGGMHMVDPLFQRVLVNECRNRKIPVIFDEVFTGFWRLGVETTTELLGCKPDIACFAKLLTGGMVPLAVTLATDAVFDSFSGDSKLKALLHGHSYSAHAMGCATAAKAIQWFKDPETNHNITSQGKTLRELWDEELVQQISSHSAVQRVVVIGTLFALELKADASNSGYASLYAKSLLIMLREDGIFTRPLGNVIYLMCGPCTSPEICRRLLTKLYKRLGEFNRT
# protocol_description: biochemical
pIC50: −log10 of the molar value.

| smiles_string | pIC50 |
| --- | --- |
| CCn1c(Cn2ccc(C(F)(F)F)n2)cc(=O)c(C(=O)O)c1-c1ccc(Cl)c(Cl)c1 | 4.79 |

* * *

# System: Pedobacter hartonius BioA
# protocol_description: BioA enzyme activity with DMSO or herbicide in vitro
# Format: biochemical
# condition: 0.5 μM, spermidine in substrate mix
# key: entry, value: % Inhibition relative to DMSO treatment

| smiles_string | % Inhibition relative to DMSO treatment |
| --- | --- |
| CCn1c(Cn2ccc(C(F)(F)F)n2)cc(=O)c(C(=O)O)c1-c1ccc(Cl)c(Cl)c1 | 2% |
| CCn1c(C)c(-c2ccc(F)cc2F)c(=O)c(C(=O)O)c1-c1ccc(Cl)c(Cl)c1 | 0% |
| CCn1c(C)c(-c2cc(OC(F)(F)F)ccc2Cl)c(=O)c(C(=O)O)c1-c1ccc(Cl)c(Cl)c1 | 7% |
| CCn1c(-c2ccc(Cl)c(Cl)c2)c(C(=O)O)c(=O)c2cc(F)ccc21 | 0% |
